# system.tested: Angiotensin-converting enzyme (Homo sapiens, UniProt P12821)
# experimental.protocol: Inhibition of angiotensin converting enzyme (ACE)
# Format: protein assay
observation.type: IC50 (nM)

Here are 2 compounds together with their reported answers.
O=C(N[C@@H](Cc1ccc(-c2ccccc2)cc1)C(=O)N1CCC[C@H]1C(=O)O)[C@@H](S)Cc1ccccc1    57
CC(C)[C@H](S)C(=O)N[C@@H](Cc1ccc(-c2ccccc2)cc1)C(=O)N[C@@H](CO)C(=O)O    100

I: O=C(N[C@@H](Cc1ccc(-c2ccccc2)cc1)C(=O)N1CCC[C@H]1C(=O)O)[C@H](S)Cc1ccccc1
II: O=C(O)[C@H](Cc1ccc(-c2ccccc2)cc1)NC(=O)[C@@H](S)Cc1ccccc1
III: O=C(N[C@@H](Cc1cccc2ccccc12)C(=O)N1CCC[C@H]1C(=O)O)[C@@H](S)Cc1ccccc1
IV: O=C(N[C@@H](Cc1ccc(-c2ccccc2)cc1)C(=O)O)[C@H](S)Cc1ccccc1
Query block: Rank the items in ascending order with respect to IC50. // respond by listing labels in the order requested
Result block: III, II, I, IV
(III: 14 nM, II: 80 nM, I: 229 nM, IV: 688 nM)

###

# system.tested: Angiotensin-converting enzyme (Homo sapiens, UniProt P12821)
# experimental.protocol: Inhibition of angiotensin converting enzyme (ACE)
# Format: protein assay
observation.type: IC50 (nM)

CC(C)[C@H](S)C(=O)N[C@@H](Cc1ccc(-c2ccccc2)cc1)C(=O)N1CCC[C@H]1C(=O)O    319

I: CC(C)[C@H](S)C(=O)N[C@@H](Cc1ccc(-c2ccccc2)cc1)C(=O)N[C@@H](Cc1ccc(O)cc1)C(=O)O
II: O=C(N[C@@H](Cc1cccc2ccccc12)C(=O)N1CCC[C@H]1C(=O)O)[C@H](S)Cc1ccccc1
Query block: Param metric = IC50; output whichever of I , II has the minimum value. Return value: the label identifying the chosen record.
Result block: II

I: O=C(N[C@@H](Cc1ccc(-c2ccccc2)cc1)C(=O)N1CCC[C@H]1C(=O)O)[C@H](S)c1ccc2c(c1)OCO2
II: O=C(N[C@@H](Cc1ccc2ccccc2c1)C(=O)N1CCC[C@H]1C(=O)O)[C@@H](S)Cc1ccccc1
Query block: Lab note: check whether I or II has the lower measured IC50. Bench note: the answer is the label of the chosen record.
Result block: II
(II: 18 nM, I: 378 nM)

A: O=C(N[C@@H](Cc1ccc2ccccc2c1)C(=O)N1CCC[C@H]1C(=O)O)[C@H](S)Cc1ccccc1
B: O=C(N[C@@H](Cc1ccc(-c2ccccc2)cc1)C(=O)N1CCC[C@H]1C(=O)O)[C@@H](S)c1ccc2c(c1)OCO2
Query block: Looking at A and B , which one comes out lower in IC50 terms? Give the label of your selection.
Result block: B
